Biological target: T1, human GITR (amino acids M1-V241, NCBI Accession #NP_004186.1) expressed on cells (human, UniProt Q9Y5U5 26-241)
T1 sequence: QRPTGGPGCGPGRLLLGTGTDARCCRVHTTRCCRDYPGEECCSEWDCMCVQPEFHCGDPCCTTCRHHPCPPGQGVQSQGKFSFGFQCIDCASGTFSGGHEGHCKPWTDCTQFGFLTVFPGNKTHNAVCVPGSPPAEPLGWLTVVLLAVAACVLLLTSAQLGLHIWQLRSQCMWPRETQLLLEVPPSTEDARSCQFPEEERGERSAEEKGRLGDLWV
Assay: cell-based or functional assay
OBSERVATION_TYPE: % Blocking, NF-kB-Luc, non-anchored (%)
Numbers only, in %.

Summary for this binder, H4H14476P (antibody, human IgG4, V domains shown, human IgG4 (H4H)) VH: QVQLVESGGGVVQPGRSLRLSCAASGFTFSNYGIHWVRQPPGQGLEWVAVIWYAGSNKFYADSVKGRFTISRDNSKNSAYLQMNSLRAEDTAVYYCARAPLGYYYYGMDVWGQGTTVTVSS VL: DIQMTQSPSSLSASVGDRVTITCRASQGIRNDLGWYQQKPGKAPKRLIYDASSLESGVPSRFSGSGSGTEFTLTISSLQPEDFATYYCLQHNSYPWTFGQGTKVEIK : % Blocking, NF-kB-Luc, non-anchored is 90
